Attribution: ChEMBL document CHEMBL1806357

test system: Fusarium oxysporum; assay: Antifungal activity against Fusarium oxysporum at 10 ug/ml after 7 days by poisoned food technique relative to control; type: functional
Reported Activity is given for each of the following molecules.
State the answer as a number, implicitly in %.

Measured on Fusarium oxysporum, Cc1cc(C)n2nc(-n3nc(C)cc3C)cc2n1 has a documented Activity of 56

###

tested on: Helminthosporium; test: Antifungal activity against Helminthosporium sp. at 10 ug/ml after 7 days by poisoned food technique relative to control; type: functional
OBSERVABLE: Activity (%)
Expressed in %, but write only the number.

COMPOUND_SMILES | Activity / %
Cc1cc(C)n2nc(-n3nc(C)cc3C)cc2n1 | 42.2

Lab book: Activity of Cc1cc(-c2ccccc2)n2nc(-n3nc(C)cc3-c3ccccc3)cc2n1 noted as 0

For reference, reported Activity for COc1ccc(-c2cc(C)nn2-c2cc3nc(C)cc(-c4ccc(OC)cc4)n3n2)cc1 stands at 0

Measured Activity, Cc1cc(-c2ccc(Cl)cc2)n2nc(-n3nc(C)cc3-c3ccc(Cl)cc3)cc2n1 : 11.1
